- Read-out: Macrophage colony-stimulating factor (MCSF), CSF1 (gene 1435)
- protocol.details: BSK_CASM3C_MCSF: BioMAP Diversity Plus: CASM3C Assay for Macrophage colony-stimulating factor (MCSF) Biomarker Activity (AID 2283044);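 further: M-CSF protein amount quantified by ELISA after 24 h exposure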
- test.conditions: primary human coronary artery smooth muscle cells; actives raise or lower the signal
Active and inactive are the calls of the source. How the source made its calls: active means hit-call score of the fitted dose curve at least 0.9, where 1 is the maximum; inactive means score below 0.9.
Form entry, call: pick from YES for active, NO for inactive

Reference set (5 entries):
compound: OCc1ccco1
label.class: NO
//
compound: ClCC(Cl)CCl
label.class: NO
//
compound: C=CC(=O)OCCCCCC(C)C
label.class: NO
//
compound: O=C1C2(Cl)C3(Cl)C4(Cl)C(Cl)(Cl)C5(Cl)C3(Cl)C1(Cl)C5(Cl)C24Cl (stereo not drawn)
label.class: YES
//
compound: ClC(Cl)=C(Cl)C(Cl)=C(Cl)Cl
label.class: NO

Asked: Which outcome did this test record for the compound CCC(=O)C(CC(C)N(C)C)(c1ccccc1)c1ccccc1 (stereo not drawn) ?
Given back: NO

Asked: Recorded test outcome, item CCOP(=S)(OCC)SCCS(=O)(=O)CC
Given back: NO

Asked: Can you look up the reported call for Nc1ccc(-c2ccc(N)c(Cl)c2)cc1Cl for me?
Given back: NO

====

- Read-out: CD38, CD38 (gene 952)
- protocol.details: BSK_SAg_CD38: BioMAP Diversity Plus: SAg Assay for CD38 Biomarker Activity (AID 2283087)
- test.conditions: primary human HUVEC with PBMC; actives raise or lower the signal
Activity calls are given as the source filed them. Rule for the calls: active = hit-call score of the fitted dose curve at least 0.9, where 1 is the maximum; inactive = score below 0.9.
Thanks in advance; please answer with one of these: 1.0 = active, 0.0 = inactive

Below are worked cases with known answers.
compound: CCOP(=S)(OCC)SCCS(=O)(=O)CC
label.class: 0.0

compound: CC(C)(C)CC(C)(C)c1ccc(O)cc1
label.class: 1.0

compound: COP(=S)(OC)Oc1c(Cl)cc(C)cc1Cl
label.class: 0.0

compound: O=c1[nH]c(=O)[nH]c(=O)[nH]1
label.class: 0.0

compound: CCNc1nc(NC(C)(C)C)nc(SC)n1
label.class: 0.0

Asked: Called result for O=C(O)C(F)(F)C(F)(F)C(F)(F)C(F)(F)C(F)(F)C(F)(F)F
Given back: 0.0

Asked: # fetch the recorded call for CC(=O)OC(c1ccccc1)C(Cl)(Cl)Cl (stereo not drawn) here
Given back: 0.0

Asked: Dear colleague, could you share the recorded outcome for C[C@@H]1C[C@@H]([C@H](O)CC2CC(=O)NC(=O)C2)C(=O)[C@@H](C)C1 when you have a moment?
Given back: 1.0

Asked: In this assay, the call recorded for CCOP(=S)(OCC)SCSP(=S)(OCC)OCC was what?
Given back: 0.0

Asked: Would you mind telling me which call this test gave O=S(=O)(c1ccc(Cl)cc1)c1ccc(Cl)cc1 ?
Given back: 0.0

Asked: For C=CC(=O)OCCCCCC(C)C , what call appears in the results of this test?
Given back: 0.0

Asked: Name the outcome recorded for CC(C)(C)c1cc(O)ccc1O in the assay.
Given back: 1.0

Asked: Per the assay record, what outcome was assigned to OCc1ccco1 ?
Given back: 0.0

====

- Test system: zebrafish Estrogen Receptor (ER2a), gene 317734
- protocol.details: ATG_zfER2a_XSP2: Attagene TRANS-FACTORIAL Multi-Species (XSP2) HepG2 Assay for zebrafish Estrogen Receptor (ER2a) (AID 2283818);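 further: hits raise reporter mRNA so AC50 reflects activation of zebrafish ER2a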
Results filed as inconclusive are left out. The source made the active and inactive calls. How the source made its calls: active means hit-call score of the fitted dose curve at least 0.9, where 1 is the maximum; inconclusive means response in the unintended direction; inactive means score below 0.9.
Response enum: t = active, f = inactive

compound: CC(C)(C)c1cc(O)ccc1O
label.class: t
--
compound: O=S(=O)(c1ccc(Cl)cc1)c1ccc(Cl)cc1
label.class: f
--
compound: CC(C)(C)CC(C)(C)c1ccc(O)cc1
label.class: f

Turning now to a further record.
Asked: Which outcome was assigned to CC1(C)CCC(Cc2ccc(Cl)cc2)C1(O)Cn1cncn1 (centres undefined) in this test?
Given back: f

====

- Read-out: BCL2L11 (gene 10018)
- protocol.details: LTEA_HepaRG_BCL2L11: Life Technologies and Expression Analysis (LTEA) Assay for Bcl-2 (BCL2L11) gene using HepaRG (AID 2283473)
- test.conditions: mRNA level, 48 h; actives raise or lower the signal
The source made the active and inactive calls. The calls were made as follows: active = hit-call score of the fitted dose curve at least 0.9, where 1 is the maximum; inactive = score below 0.9.
Choose the fitting class; nothing outside 1 = active, -1 = inactive is accepted.

molecule: CCCCCCCCc1ccc(O)cc1
label.class: -1

Asked: What outcome does the record of this test show for Cc1ccccc1N ?
Given back: -1

Asked: Could you kindly confirm the outcome this assay logged for CC(C)(c1ccccc1)c1ccc(O)c(C(C)(C)c2ccccc2)c1 ?
Given back: -1

Asked: Please state the recorded outcome for this molecule: COc1cc(-c2ccc(N)c(OC)c2)ccc1N
Given back: -1

Asked: For this molecule, state the assay outcome: O=C(O)C(F)(F)C(F)(F)C(F)(F)C(F)(F)C(F)(F)C(F)(F)C(F)(F)C(F)(F)C(F)(F)C(F)(F)F
Given back: 1

Asked: Query: recorded result category for C=CC(=O)OCCCCCC(C)C in this test
Given back: -1

====

- Read-out: Cytochrome P450 7A1 (Homo sapiens) (UniProt P22680)
- protocol.details: LTEA_HepaRG_CYP7A1: Life Technologies and Expression Analysis (LTEA) Assay for Cytochrome P450 7A1 (CYP7A1) using HepaRG (AID 2283496)
- test.conditions: mRNA level, 48 h; actives raise or lower the signal
Active and inactive are the calls of the source. The calls were made as follows: active = hit-call score of the fitted dose curve at least 0.9, where 1 is the maximum; inactive = score below 0.9.
One label from this list, please: active, inactive

Before answering, review these 5 worked examples.
compound: CN(C)N=O
label.class: inactive
//
compound: CCOP(=S)(OCC)Oc1nc(Cl)c(Cl)cc1Cl
label.class: active
//
compound: ClC1(Cl)C2(Cl)C3(Cl)C4(Cl)C(Cl)(Cl)C5(Cl)C3(Cl)C1(Cl)C5(Cl)C24Cl (configuration not stated)
label.class: inactive
//
compound: C[C@]12CCC(=O)C[C@@H]1CC[C@@H]1[C@@H]2CC[C@]2(C)[C@@H](O)CC[C@@H]12
label.class: inactive
//
compound: O=C(O)C(F)(F)C(F)(F)C(F)(F)C(F)(F)C(F)(F)C(F)(F)F
label.class: inactive

Note: attention shifts to another entry.
Asked: Per the records of this test, what outcome belongs to CC12CC1(C)C(=O)N(c1cc(Cl)cc(Cl)c1)C2=O (configuration not stated) ?
Given back: active

====

- tested.system: Estrogen receptor (Homo sapiens) (UniProt P03372)
- Sequence (P03372 whole entry, looked up): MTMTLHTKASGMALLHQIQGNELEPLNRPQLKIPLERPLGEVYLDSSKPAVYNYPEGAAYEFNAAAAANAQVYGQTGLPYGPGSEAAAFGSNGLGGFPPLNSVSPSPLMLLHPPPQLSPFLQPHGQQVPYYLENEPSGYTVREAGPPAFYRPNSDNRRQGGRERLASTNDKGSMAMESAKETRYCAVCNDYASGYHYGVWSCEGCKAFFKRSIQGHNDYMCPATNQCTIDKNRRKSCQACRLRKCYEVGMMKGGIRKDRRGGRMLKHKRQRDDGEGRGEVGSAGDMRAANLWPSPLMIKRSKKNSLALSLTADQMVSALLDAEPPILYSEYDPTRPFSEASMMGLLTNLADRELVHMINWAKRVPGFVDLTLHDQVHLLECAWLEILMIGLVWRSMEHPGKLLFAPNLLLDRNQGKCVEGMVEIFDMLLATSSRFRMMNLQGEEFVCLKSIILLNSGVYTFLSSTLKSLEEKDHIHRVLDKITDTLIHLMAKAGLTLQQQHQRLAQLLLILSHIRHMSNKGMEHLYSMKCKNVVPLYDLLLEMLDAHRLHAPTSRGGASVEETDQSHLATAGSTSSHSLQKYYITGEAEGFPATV
- protocol.details: OT_ERa_GFPERaERE_0120: Odyssey Thera (OT) 2-hour HeLa Transcription Induction Assay for Estrogen Receptor (AID 2283382)
- Experimental: OT_ERa_GFPERaERE_0120 is a cell-based, single-readout assay that uses HeLa, a human cervix cell line, with measurements taken at 2 hours after chemical dosing in a 384-well plate.OT_ERa_GFPERaERE_0120 is one of one assay component(s) measured or calculated from the OT_ERa_GFPERaERE_0120 assay. […] This assay endpoint, OT_ERa_EREGFP_0120, was analyzed in the positive analysis fitting direction relative to DMSO as the negative control and baseline of activity. […]
The source made the active and inactive calls. The calls were made as follows: active = hit-call score of the fitted dose curve at least 0.9, where 1 is the maximum; inconclusive = response in the unintended direction; inactive = score below 0.9.
Just give me one of these, please: active, inactive

compound: C=C(C)C#N
label.class: inactive
//
compound: Clc1ccc(C2(Cn3cncn3)CC(Br)CO2)c(Cl)c1 (stereo not given)
label.class: inactive

Asked: For CC1(C)CCC(Cc2ccc(Cl)cc2)C1(O)Cn1cncn1 (stereo not given) , what call appears in the results of this test?
Given back: inactive

Asked: Short answer needed: outcome of this test for C=C(C)C(=O)[O][Sn]([CH2]CCC)([CH2]CCC)[CH2]CCC ?
Given back: active

Asked: Please share the test call associated with Clc1nc(Cl)nc(Cl)n1 .
Given back: inactive

====

- protocol.details: ATG_TGFb_CIS: Attagene CIS-FACTORIAL HepG2 Assay for human Transforming Growth Factor (TGF) (AID 2282967)
- test.conditions: HepG2 Attagene CIS TGFb reporter, mRNA transcription; actives raise or lower the signal
Activity calls are given as the source filed them. How the source made its calls: active means hit-call score of the fitted dose curve at least 0.9, where 1 is the maximum; inactive means score below 0.9.
Pick one: 1 for active, -1 for inactive

Illustrative cases are given below, each with its answer.
compound: Nc1cccc2ccccc12
label.class: -1

compound: CC(C)c1cccc(C(C)C)c1O
label.class: -1

compound: NC(=S)Nc1ccccc1
label.class: -1

compound: O=C1CCCN1
label.class: -1

compound: O=C1C2(Cl)C3(Cl)C4(Cl)C(Cl)(Cl)C5(Cl)C3(Cl)C1(Cl)C5(Cl)C24Cl (stereo unspecified)
label.class: -1

compound: CCc1ccccc1N
label.class: -1

Now turn to the next compound.
Asked: Please state the recorded outcome for this compound: CN(C)N=O
Given back: -1

====

- protocol.details: ATG_AP_2_CIS: Attagene CIS-FACTORIAL HepG2 Assay for human Activator Protein 2 (AP-2) (AID 2282932)
- test.conditions: HepG2 AP-2 cis-reporter, Attagene transcription factor profiling; actives raise or lower the signal
Activity calls are given as the source filed them. The calls were made as follows: active = hit-call score of the fitted dose curve at least 0.9, where 1 is the maximum; inactive = score below 0.9.
// classify into yes (1) (active), no (0) (inactive)

Would you please look over these solved cases?
molecule: CC(C)(c1ccccc1)c1ccc(O)c(C(C)(C)c2ccccc2)c1
label.class: no (0)

molecule: O=CC=O
label.class: no (0)

Asked: Test call, this molecule: CNC(=O)O/N=C/C(C)(C)S(C)=O (centres undefined)
Given back: no (0)

Asked: Kindly provide the recorded test outcome for the following molecule: CC(C)c1cccc(C(C)C)c1O
Given back: no (0)

Asked: Can you look up the reported call for ClCc1cccnc1 for me?
Given back: no (0)

Asked: Which outcome did this test record for the molecule ClCCBr ?
Given back: no (0)

Asked: Could you please tell me the result logged for C=C(C)C(=O)[O][Sn]([CH2]CCC)([CH2]CCC)[CH2]CCC in this assay?
Given back: yes (1)

Asked: Look up the recorded call for N#CCCO in this test.
Given back: no (0)

Asked: Which outcome was entered for the molecule CC(C#N)CCC#N (centres undefined) in this test?
Given back: no (0)
